Would you kindly list GI50 for each of these compounds?
Tested on: RXF 631
Assay: NCI tumour cell line growth inhibition, 48 h
Calls of active or inactive are those of the source. Cut-off read from the data, not from the text of the source: active = GI50 up to about 1.1 µM and inactive = higher.

compound="Cc1cccc(C)c1N1C(=O)C(=O)C(c2nc3ccccc3s2)/C(=N\\N)C1=O (configuration not stated)" testedtarget="RXF 631" measuredvalue="> 100 µM (inactive)"
compound=COc1ccc(CNc2nc3ccc(C(F)(F)F)cc3nc2-c2ccccc2)cc1OC testedtarget="RXF 631" measuredvalue="16.7 µM (inactive)"
compound=CN(C)CCC[N+]1=Nc2cccc3cccc(c23)N1 testedtarget="RXF 631" measuredvalue="> 100 µM (inactive)"

Quick batch: GI50 for everything below.
1. Nc1ccc2n[se]nc2c1
2. CCC(C)(O)c1cn(-c2ccc(S(=O)(=O)O)cc2)nn1 (configuration not stated)
3. N#CC12C3C4CC5C6C4C1C6C(O)(C53)N2Cc1ccccc1 (configuration not stated)
4. Cc1nnc2n1N=C(CC(=O)c1ccc(O)cc1O)CN2N
5. CC(N)Cc1cccc(C(F)(F)F)c1 (configuration not stated)

Key:
["> 100 µM (inactive)", "> 100 µM (inactive)", "> 100 µM (inactive)", "> 100 µM (inactive)", "> 100 µM (inactive)"]

Hello, I would appreciate it if you could give GI50 for each entry below.
1. OCCSCC/C(=N\N=C(/CCSCCO)c1ccccc1)c1ccccc1
2. C/C(=N\NC(N)=S)c1ccc(C)cc1C
3. Cc1cc(NCCCCCCNc2cc(C)nc3cc(N(C)C)ccc23)c2ccc(N(C)C)cc2n1
4. Cn1c(C2CCCc3c2c2ccccc2n3C)cc2ccccc21 (configuration not stated)

Key:
1. 65.8 µM (inactive)
2. 91 µM (inactive)
3. > 100 µM (inactive)
4. 126 µM (inactive)

---

Tested on: T47D
Experiment: NCI tumour cell line growth inhibition, 48 h
Activity calls are given as the source filed them. Cut-off read from the data, not from the text of the source: active = GI50 up to about 1.1 µM and inactive = higher.
measuredProperty: GI50

molecule=CCCCCCOc1ccc(C(=O)NO)cc1 measuredvalue="5.83 µM (inactive)"
molecule=CC(/C=N/N=C1NCCCCN1)=N\N=C1NCCCCN1 measuredvalue="> 100 µM (inactive)"
molecule=O=C1C(N2CCN(CCOCCO)CC2)=C(Cl)C(=O)c2ncccc21 measuredvalue="2.58 µM (inactive)"

The following molecules each have a reported value; give each one's GI50.
1. CO[C@H]1O[C@@H]2CO[C@@H](c3ccccc3)O[C@H]2[C@@H]2CC=CCC[C@]12O
2. CCSC1=N/C(=C\c2ccc(N(C)C)cc2)C(Cl)=N1
3. Cc1cc(C)c2c(=O)n(CC(O)CN3CCN(CCOCCO)CC3)sc2n1 (stereo unspecified)
4. CCOC(=O)C#Cc1cccc(C#CC(=O)OCC)c1
5. CCCc1c2c3ccccc3nc-2nc2ccccn12
6. COC(=O)c1c(O)ccc2c1c1c(n2Cc2ccc(OC)cc2)C(=O)c2ccccc2C1=O

Key:
["94 µM (inactive)", "37.7 µM (inactive)", "19.1 µM (inactive)", "42.3 µM (inactive)", "> 100 µM (inactive)", "6.78 µM (inactive)"]

Report GI50 for every entry below.
1. CC(=O)/C(=C\Nc1c(C)n(C)n(C)c1=O)C(=O)c1ccccc1
2. OCCN(CCO)c1ccc2c(C(F)(F)F)cc(C(F)(F)F)nc2n1

Key:
["> 50 µM (inactive)", "> 100 µM (inactive)"]

---

Tested on: HCC 2998
Test: NCI tumour cell line growth inhibition, 48 h
Activity calls are given as the source filed them. Rule as the data show it: active = GI50 up to about 1.1 µM and inactive = higher.
measuredProperty: GI50

compound="Nc1nc(=O)c2c([nH]1)NCC(CNc1ccc(C(=O)N[C@@H](CCC(=O)O)C(=O)O)cc1)N2C=O (some centres undefined)" testedtarget="HCC 2998" measuredproperty=GI50 measuredvalue="> 125 µM (inactive)"
compound="CC(C(N)=O)N(C)C(=O)c1cnc2ccccc2c1 (centres undefined)" testedtarget="HCC 2998" measuredproperty=GI50 measuredvalue="> 100 µM (inactive)"
compound=CCn1c(=O)c2c3cc(O)ccc3oc2c2ccc(O)cc21 testedtarget="HCC 2998" measuredproperty=GI50 measuredvalue="19.3 µM (inactive)"
compound=COC(=O)c1nn(-c2ccccc2)c(=O)cc1N=[N+]=[N-] testedtarget="HCC 2998" measuredproperty=GI50 measuredvalue="> 100 µM (inactive)"
compound=O=C1Nc2ccccc2[C@]12C[C@H]2c1ccccn1 testedtarget="HCC 2998" measuredproperty=GI50 measuredvalue="> 100 µM (inactive)"

Below are 8 compounds. Give each one its GI50.
1. COc1cc(NC(C)CCCN)c2nccc(C)c2c1 (centres undefined)
2. C/C=C(/C)C(=O)O[C@H]1[C@H](O)CC(c2ccc3c(c2O)C(=O)C2=C(O)C4(OC)C(=O)C(C(N)=O)=C(O)[C@H](CC(=O)c5ccccc5O)C4CC2[C@@]3(C)OC)O[C@@H]1C (some centres undefined)
3. CC(C)NC(C)C(C)c1ccccc1 (centres undefined)
4. CCC(C)(O)c1cn(-c2ccc(S(=O)(=O)O)cc2)nn1 (centres undefined)
5. c1ccc([P+](Cc2ccccc2C[P+](c2ccccc2)(c2ccccc2)c2ccccc2)(c2ccccc2)c2ccccc2)cc1
6. C=CCCCCCCCCCOC1C=CC(OC(C)=O)C(COC(C)=O)O1 (centres undefined)
7. CC[C@@H]([C@H](O)c1ccccc1Cl)[N+](=O)[O-]
8. COc1cc(C(C)c2cc3c(cc2OCCN)OCO3)cc(OC)c1OC (centres undefined)

Key:
["19.9 µM (inactive)", "0.0326 µM (active)", "> 100 µM (inactive)", "> 100 µM (inactive)", "> 100 µM (inactive)", "39.8 µM (inactive)", "> 100 µM (inactive)", "> 100 µM (inactive)"]

Hey, can you go through the list below and give me GI50 for every item?
1. OC1c2[nH]c3ccccc3c2CCN2CCCCC12 (centres undefined)
2. CC(C)(C)[Si](C)(C)OCCC1CC2(S(=O)(=O)C3=CC=C=C=C3)ON1CC2S(=O)(=O)c1ccccc1 (centres undefined)
3. CCOC(=O)CCC(NC(=O)OCc1ccccc1)C(=O)NC(CCC(=O)OCC)C(=O)NC(CCC(=O)OCC)C(=O)NNC(=O)OC(C)(C)C (centres undefined)
4. OCCCSCCO
5. O=C(O)CCc1c2ccc(=O)c(O)c-2oc2c(O)c(O)ccc12
6. O=C(C#Cc1ccccc1)C1=Cc2ccccc2OC1
7. CCCC(=O)Nc1cn(COC)c(C(=O)N2C[C@@H]3C[C@]34C2=CC(=O)c2[nH]cc(C)c24)n1
8. O=c1[nH]c(=O)n(C2CC(O)C(CO)O2)cc1C1=NC1 (centres undefined)

Key:
1: 75.3 µM (inactive); 2: > 10 µM (inactive); 3: > 100 µM (inactive); 4: > 100 µM (inactive); 5: 8.55 µM (inactive); 6: 7.38 µM (inactive); 7: 5.31 µM (inactive); 8: > 100 µM (inactive)

Hey, quick one: what's GI50 for each of these?
1. CSC1=C(C#N)C(=O)N(c2ccc(Cl)cc2)C(=O)C1C#N (centres undefined)
2. OC(CCN1CCN(CCOC(c2ccccc2)c2ccccc2)CC1)c1ccc(Br)cc1 (centres undefined)
3. CCOC(=O)C1N(S(=O)(=O)c2ccc(C)cc2)CCC12c1ccccc1NC2c1ccc(OC)c(OC)c1 (centres undefined)
4. C=CC1ON(C)CCc2cc(OC)c(OC)cc21 (centres undefined)
5. O=C1CCSc2nc(-c3ccc4c(c3)OCO4)nn21
6. CCOC(=O)C(NC(=O)c1ccccc1)(Nc1ccc(S(=O)(=O)Nc2nc(C)cc(C)n2)cc1)C(F)(F)F (centres undefined)
7. CC(C)(C)c1ccccc1N1C(=O)c2ccc3c4c(ccc(c24)C1=O)N(c1ccccc1C(C)(C)C)C3=O

Key:
1. > 100 µM (inactive)
2. 1.73 µM (inactive)
3. > 100 µM (inactive)
4. > 100 µM (inactive)
5. > 10 µM (inactive)
6. > 100 µM (inactive)
7. > 100 µM (inactive)

Exercise: Sample C1COCCN1.CN(C)c1ccc(-c2c(C#N)c(N)nc(S)c2C#N)cc1 — what was its GI50?
Key: 56.1 µM (inactive)

---

Tested on: NCI-H460
Assay: NCI tumour cell line growth inhibition, 48 h
Calls of active or inactive are those of the source. No stated cut-off is given here; in the data, active = GI50 up to about 1.1 µM and inactive = higher.
Just give me one of these, please: YES = active, NO = inactive

Example entries begin here.
molecule=c1c[nH]c(-c2cccc3nsnc23)c1 group=NO
molecule=O=c1[nH]c(-n2[nH]c3c(c2=O)CCCC3)nc(O)c1-c1ccccc1 group=NO
molecule=CCc1c(-c2ccc(OC)cc2)c(=O)oc2cc(O)ccc12 group=NO
molecule="COC(=O)CCC(C)[C@H]1CCC2C3CC[C@@H]4CC5(CC[C@]4(C)C3C[C@H](OC(C)=O)[C@@]21C)OOC1(CCCCC1)OO5 (stereo partly drawn)" group=NO

// next entry
Exercise: Which outcome was entered for the molecule CN(CCc1ccccn1)c1nc(=[N+](C)C)ss1 in this test?
Key: NO
